Tested on: Mixture of five strains separated from the putrefied milk
Test: Disinfecting power (number of viable cells)
Type: cell-based
Details: concentration of chemical 1%; initial 10^5-10^6/ml
quantity: Number of viable cells after 1 hr.

Observe how each entry below is paired with its result.
>  <compound>
O=C(O)CC(O)C(=O)O (stereo not drawn) [Malic acid]

>  <Number of viable cells after 1 hr.>
⊖

$$$$
>  <compound>
O=CCCCC=O [Glutaraldehyde]

>  <Number of viable cells after 1 hr.>
⊖

$$$$
>  <compound>
OO [35% H2 O2 solution, hydrogen peroxide]

>  <Number of viable cells after 1 hr.>
⊖

$$$$
>  <compound>
CC(=O)O [Acetic acid]

>  <Number of viable cells after 1 hr.>
⊖

$$$$

Documented Number of viable cells after 1 hr. of C/C=C/C=C/C(=O)[O-].[K+] [Potassium sorbate] : ⊖
